# Tested on: SF-539 CNS
# measurementDescription: NCI tumour cell line growth inhibition, 48 h
# log10 TGI listing for each entry below
The common logarithm of TGI in µM is what is listed.

Look over these answered cases.
C=C1C(=O)O[C@H]2[C@H]1CC/C(CNS(=O)(=O)c1ccc3ccccc3c1)=C\CC[C@@]1(C)O[C@@H]21 : 0.55
COc1ccc(-c2nsc3c2NC(=O)CC3c2ccc3c(c2)OCO3)cc1 (stereo not given) : 0.57
CNC(=O)c1c(NC(=O)c2cccc(C(F)(F)F)c2)sc2c1CCC(=O)C2 : 0.22
O=C(Nc1ccc(Cl)cc1)c1cc2c(cc1O)[nH]c1ccccc12 : 0.78
COc1ccc(Nc2ncccc2/C=C/C(=O)c2cc(OC)c(OC)c(OC)c2)cc1 : 0.71

Incoming: Tell me measured log10 TGI for `C=CCN(c1cc(OCc2ccccc2)c(NC(C)=O)cc1[N+](=O)[O-])S(C)(=O)=O` please.
Outgoing: 1.50

Incoming: Tell me its log10 TGI given `COc1ccc(Nc2ccnc(NCCNc3ccnc4cc(Cl)ccc34)n2)cc1` as the entry.
Outgoing: 0.51

Incoming: Give the reported log10 TGI for this molecule. `O=C1c2ccccc2-c2c1c1ccc([N+](=O)[O-])cc1c(=O)n2CCNCCCNCCn1c2c(c3ccc([N+](=O)[O-])cc3c1=O)C(=O)c1ccccc1-2`
Outgoing: 0.78

Incoming: Quickly give me recorded log10 TGI for NS(=O)(=O)c1ccc(C2C3=C(CCCC3=O)OC3=C2C(=O)c2ccccc2C3=O)cc1 (stereo not given)
Outgoing: -0.12

Incoming: Give log10 TGI for the following molecule: `CCOC(=O)c1cc2c(n1Cc1cc(OC)cc(OC)c1)-c1oncc1CCC2`
Outgoing: -0.69

Incoming: Output measured log10 TGI for this item: `Cc1ccc2c[c]1[Hg][CH2]COS2(=O)=O`
Outgoing: 1.51

Incoming: Give a short answer stating reported log10 TGI for CC(=O)NC1=C(C)C(=O)c2c(nc3n2CCC3O)C1=O (stereo not given) .
Outgoing: 1.71
